Source: paper PMC2866539

Reported pKd by item:
Molecular target: DRA1*0101/DRB1*0302 (Homo sapiens, UniProt P01903+P01911, A100K/A102G/A103R/A169T/D57E/F76Y/I96L/K41T/L162R/M171V/P40S/Q125H/Q178H/Q39Y/R42S/S66N/T106N/T262R/V115G/W38E/Y61H)
Experiment: biochemical
Format: binding
pKd: −log10 of the molar value. Where no end group is shown, it is not given here.

Reference set (3 entries):
# ordered-residues, reported-metric, result
records = [
    ("ETIVLLRAF [PF-113]", "pKd", "< 5.30"),
    ("LPFQNVHPV [PF-150]", "pKd", "< 5.30"),
    ("LVSLGAISF [PF-148]", "pKd", "< 5.30"),
]

Problem: Data request, read-out pKd, for IAPWYAFAL [PF-154]
Solution: < 5.30

Problem: Data request, read-out pKd, for IMLKANFSV [PF-103]
Solution: < 5.30

Problem: Data request, read-out pKd, for LPFHNVHPL [PF-147]
Solution: < 5.30

Problem: Data request, read-out pKd, for YKYVKQNTLKLAT [HA306–318, reference compound]
Solution: 7.28

Problem: Data request, read-out pKd, for YVKQNTLKL [PF-152]
Solution: 5.65

Problem: Data request, read-out pKd, for LMNELGVPF [PF-141]
Solution: < 5.30

----------
Molecular target: HLA-B7 (Homo sapiens, UniProt P01889)
Test: biochemical
Format: binding
Where no end group is shown, it is not given here.
Reported Kd by item:
Numeric only. Scale: nM

Problem: Data request, read-out Kd, for YVKQNTLKL [PF-152]
Solution: 72

----------
Molecular target: DRA1*0101/DRB1*0101 (Homo sapiens, UniProt P01903+P01911, A100R/D57E/F55L/F60I/F76Y/I96L/L162R/M171V/P40L/Q125E/R42F/V115G/Y59C)
Construct: made in house
Assay: biochemical
Assay type: binding
Where no end group is shown, it is not given here.
reported-metric: Kd (µM)
Numeric only. Scale: µM

Reference set (3 entries):
# ordered-residues, Kd (µM)
rows = [
    ("YKYVKQNTLKLAT [HA306–318, reference compound]", 0.108),
    ("IMLKANFSV [PF-103]", 3.43),
    ("ETIVLLRAF [PF-113]", 3.73),
]

Problem: Data request, read-out Kd, for YVKQNTLKL [PF-152]
Solution: 1.2

Problem: Data request, read-out Kd, for LVSLGAISF [PF-148]
Solution: 4.34

----------
Molecular target: DRA1*0101/DRB5*0101 (Homo sapiens, UniProt P01903+Q30154)
Construct: made in house
Experiment: biochemical
Format: binding
Where no end group is shown, it is not given here.
Reported Kd by item:

Reference set (2 entries):
# ordered-residues, reported-metric, result
rows = [
    ("LVSLGAISF [PF-148]", "Kd", "> 5 µM"),
    ("IMLKANFSV [PF-103]", "Kd", "> 5 µM"),
]

Kindly consider the entry below.
Problem: Data request, read-out Kd, for LMNELGVPF [PF-141]
Solution: > 5 µM

----------
Reported Kd by item:
Target: HLA-B7 (Homo sapiens, UniProt P01889)
Experiment: biochemical
Format: binding
Where no end group is shown, it is not given here.
Numeric only. Scale: nM

Reference set (2 entries):
# ordered-residues, readout-number
records = [
    ("LPFHNVHPL [PF-147]", 6),
    ("LPFQNVHPV [PF-150]", 161),
]

Kindly consider the entry below.
Problem: Record YPRYPGVRC [PF-145] : what is its Kd with HLA-B7 (Homo sapiens, UniProt P01889)?
Solution: 11

----------
Molecular target: DRA1*0101/DRB1*0101 (Homo sapiens, UniProt P01903+P01911, A100R/D57E/F55L/F60I/F76Y/I96L/L162R/M171V/P40L/Q125E/R42F/V115G/Y59C)
Construct: made in house
Assay: biochemical
Assay type: binding
pKd: −log10 of the molar value. Where no end group is shown, it is not given here.
Reported pKd by item:

Reference set (3 entries):
# ordered-residues, result
rows = [
    ("LPFHNVHPL [PF-147]", "< 5.30"),
    ("LMNELGVPF [PF-141]", "< 5.30"),
    ("LPFQNVHPV [PF-150]", "< 5.30"),
]

Kindly consider the entry below.
Problem: Data request, read-out pKd, for IAPWYAFAL [PF-154]
Solution: < 5.30
